- CONDITION_SET: SD, rat, in vivo, po, 5 mg/kg
Assign 1 (yes) to entries whose F meets or exceeds 50%; assign 0 (no) to the rest.

# COMPOUND, CATEGORY_LABEL
measured = [
    ("O=C(O)C1C2CCC(CC2)C1Nc1cc(-c2cccc3c2oc2ccccc23)nc(-c2c[nH]c3ncc(F)cc23)n1 (racemic)", "0 (no)"),
    ("CC(C)(C)[C@@H](CC(=O)O)Nc1nc(-c2c[nH]c3ncc(F)cc23)nc(-c2ccco2)c1F", "1 (yes)"),
    ("Cc1nc2[nH]cc(-c3nc(NC4C5CCC(CC5)C4C(=O)O)cc(-c4ccccc4)n3)c2cc1F (racemic)", "1 (yes)"),
    ("O=C(O)C1C2CCC(CC2)C1Nc1nc(-c2c[nH]c3ncc(F)cc23)nc(C#Cc2ccccc2)c1F (racemic)", "1 (yes)"),
    ("Cn1ccc2c(NC3C4CCC(CC4)C3C(=O)O)nc(-c3c[nH]c4ncc(F)cc34)nc21 (racemic)", "0 (no)"),
    ("O=C(O)C1C2CCC(CC2)C1Nc1nc(-c2c[nH]c3ncc(F)cc23)nc2c1CCCC2 (racemic)", "0 (no)"),
    ("O=C(O)[C@H]1C2CCC(CC2)[C@@H]1Nc1cc(-c2ccco2)nc(-c2c[nH]c3nc(F)ccc23)n1", "0 (no)"),
    ("O=C(O)C1C2CCC(CC2)C1Nc1cc(-c2cc3ccccc3s2)nc(-c2c[nH]c3ncc(F)cc23)n1 (racemic)", "1 (yes)"),
    ("O=C(O)C1C2CCC(CC2)C1Nc1cc(-c2ccco2)nc(-c2c[nH]c3ncc(F)cc23)n1 (racemic)", "0 (no)"),
]

====

Reported Cmax values for a set of compounds
- METHOD_NOTES: in vivo
- CONDITION_SET: SD, rat, iv, 1 mg/kg

# COMPOUND, Cmax / ng/mL
records = [
    ("O=C(O)C1C2CCC(CC2)C1Nc1cc(-c2ccco2)nc(-c2c[nH]c3ncc(F)cc23)n1 (racemic)", 10900),
    ("Cc1nc2[nH]cc(-c3nc(NC4C5CCC(CC5)C4C(=O)O)cc(-c4ccccc4)n3)c2cc1F (racemic)", 5630),
    ("O=C(O)[C@H]1C2CCC(CC2)[C@@H]1Nc1cc(-c2ccco2)nc(-c2c[nH]c3nc(F)ccc23)n1", 14800),
    ("O=C(O)C1C2CCC(CC2)C1Nc1cc(C2CC2)nc(-c2c[nH]c3ncc(F)cc23)n1 (racemic)", 3750),
    ("CC(C)(C)[C@@H](CC(=O)O)Nc1nc(-c2c[nH]c3ncc(F)cc23)nc(-c2ccco2)c1F", 8540),
    ("Cn1ccc2c(NC3C4CCC(CC4)C3C(=O)O)nc(-c3c[nH]c4ncc(F)cc34)nc21 (racemic)", 6830),
    ("O=C(O)C1C2CCC(CC2)C1Nc1cc(-c2cccc3c2oc2ccccc23)nc(-c2c[nH]c3ncc(F)cc23)n1 (racemic)", 4470),
    ("O=C(O)C1C2CCC(CC2)C1Nc1nc(-c2c[nH]c3ncc(F)cc23)nc2ccccc12 (racemic)", 5900),
    ("O=C(O)C1C2CCC(CC2)C1Nc1cc(-c2ccccc2)nc(-c2c[nH]c3ncc(F)cc23)n1 (racemic)", 5980),
    ("O=C(O)C1C2CCC(CC2)C1Nc1nc(-c2c[nH]c3ncc(F)cc23)nc2c1CCCC2 (racemic)", 4910),
    ("O=C(O)C1C2CCC(CC2)C1Nc1nc(-c2c[nH]c3ncc(F)cc23)nc(C#Cc2ccccc2)c1F (racemic)", 4990),
    ("O=C(O)C1C2CCC(CC2)C1Nc1cc(-c2cc3ccccc3s2)nc(-c2c[nH]c3ncc(F)cc23)n1 (racemic)", 4420),
]
